Attribution: patent US20080207634A1

target.under.test: human CXCR4 (Homo sapiens, UniProt P61073)
Construct: expressed in transfected cells; host or cells: HEK-293 cells (stably expressing human macrophage scavenging receptor) transduced with human CXCR4 BacMam and Gqi5 BacMam
Sequence (P61073 whole entry): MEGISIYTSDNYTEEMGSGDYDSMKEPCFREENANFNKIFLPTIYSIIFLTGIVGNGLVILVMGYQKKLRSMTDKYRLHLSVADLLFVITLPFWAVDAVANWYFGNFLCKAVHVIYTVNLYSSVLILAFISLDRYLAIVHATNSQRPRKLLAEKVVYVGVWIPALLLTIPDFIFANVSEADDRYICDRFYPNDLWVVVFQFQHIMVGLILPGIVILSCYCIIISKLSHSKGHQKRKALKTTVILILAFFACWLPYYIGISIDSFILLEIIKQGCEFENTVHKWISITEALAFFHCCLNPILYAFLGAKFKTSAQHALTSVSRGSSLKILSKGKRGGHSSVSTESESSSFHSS
run.description: Functional FLIPR assay (block of SDF-1 alpha induced [Ca2+]i change)
Type: cell-based
particulars: HEK-293 cells with human CXCR4 BacMam and Gqi5 BacMam; antagonism of SDF-1 alpha; read-out: Functional assay (pIC50) (converted)
Experimental: Human embryonic kidney (HEK-293) cells were maintained and harvested as described above. […] After the required incubation time the cells were washed once with 50 ul of fresh serum-free DMEM/F12 media containing probenicid. […] Cell plates were transferred to a Fluorometric Imaging Plate Reader (FLIPR). […]
readout.name: IC50 (nM)
Numbers only, in nM.

molecule: CN1CCN(c2cccc3nc(CN(C)C4CCOc5cccnc54)cn23)CC1 (stereo not shown)
target.under.test: human CXCR4 (Homo sapiens, UniProt P61073)
IC50 / nM: 6.92

molecule: CN(Cc1cn2c(N3CCNCC3)cccc2n1)C1CCOc2cccnc21 (stereo not shown)
target.under.test: human CXCR4 (Homo sapiens, UniProt P61073)
IC50 / nM: 25.1

Now look at this one.
Incoming: Please give measured IC50 of the following entry: CN(C)CCN(C)c1cccc2nc(CN(C)C3CCOc4cccnc43)cn12 (stereo not shown)
Outgoing: 69.2

---

run.description: Cell/cell fusion assay (luciferase)
Format: cell-based
particulars: Homo sapiens, HEK293; 24 h incubation, luciferase readout; read-out: Fusion assay (pIC50) (converted)
Task for the reader: assign each of the following compounds its reported IC50.
Give bare numbers, in nM.

Example results:
compound: CN(C)CCN(C)c1cccc2nc(CN(C)C3CCOc4cccnc43)cn12 (stereo not shown)
observed.measurement: 61.7

compound: CN(Cc1cn2c(N3CCNCC3)cccc2n1)C1CCOc2cccnc21 (stereo not shown)
observed.measurement: 26.9

Now look at this one.
Incoming: Please give measured IC50 of the following entry: CN1CCN(c2cccc3nc(CN(C)C4CCOc5cccnc54)cn23)CC1 (stereo not shown)
Outgoing: 2.63
